// values below are pIC50; system is Epidermal growth factor receptor (Homo sapiens, UniProt P00533, L858R)
Sequence (P00533 25-1210 L858R limits assumed): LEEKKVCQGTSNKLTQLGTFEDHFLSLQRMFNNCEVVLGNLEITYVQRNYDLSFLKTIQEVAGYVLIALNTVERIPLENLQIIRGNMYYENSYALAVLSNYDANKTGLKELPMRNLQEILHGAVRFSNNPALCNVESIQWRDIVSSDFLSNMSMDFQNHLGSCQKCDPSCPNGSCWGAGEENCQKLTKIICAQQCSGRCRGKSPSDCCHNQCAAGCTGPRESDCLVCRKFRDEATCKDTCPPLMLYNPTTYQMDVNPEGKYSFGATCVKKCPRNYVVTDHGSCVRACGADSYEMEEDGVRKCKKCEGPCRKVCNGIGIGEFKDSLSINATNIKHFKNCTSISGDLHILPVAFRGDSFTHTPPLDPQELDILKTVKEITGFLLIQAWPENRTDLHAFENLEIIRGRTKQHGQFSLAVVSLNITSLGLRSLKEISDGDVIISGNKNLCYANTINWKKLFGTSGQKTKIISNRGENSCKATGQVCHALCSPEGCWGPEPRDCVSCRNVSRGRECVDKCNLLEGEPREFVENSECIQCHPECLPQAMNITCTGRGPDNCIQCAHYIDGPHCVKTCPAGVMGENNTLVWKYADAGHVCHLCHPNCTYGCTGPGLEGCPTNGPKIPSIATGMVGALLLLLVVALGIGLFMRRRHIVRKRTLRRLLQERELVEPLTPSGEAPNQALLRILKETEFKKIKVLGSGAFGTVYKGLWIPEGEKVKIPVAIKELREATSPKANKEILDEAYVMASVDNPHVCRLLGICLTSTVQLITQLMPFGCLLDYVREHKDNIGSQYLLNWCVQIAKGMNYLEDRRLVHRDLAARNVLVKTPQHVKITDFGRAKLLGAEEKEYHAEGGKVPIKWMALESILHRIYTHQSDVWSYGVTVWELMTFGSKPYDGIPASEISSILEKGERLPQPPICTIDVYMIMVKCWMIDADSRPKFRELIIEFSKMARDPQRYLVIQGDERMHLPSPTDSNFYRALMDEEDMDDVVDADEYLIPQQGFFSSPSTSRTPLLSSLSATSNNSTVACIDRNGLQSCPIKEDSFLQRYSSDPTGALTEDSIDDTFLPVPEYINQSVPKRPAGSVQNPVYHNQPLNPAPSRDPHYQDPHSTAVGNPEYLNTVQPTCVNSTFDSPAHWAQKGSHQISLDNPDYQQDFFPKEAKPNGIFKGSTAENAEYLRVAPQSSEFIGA
Answers are plain numbers, as −log10 of the molar value.

The examples below pair each entry with its known result.
1. COc1cc(N2CCN(C)CC2)ccc1Nc1ncc(Cl)c(Oc2cccc(NC(=O)CCN(C)C)c2)n1 | 6.09
2. COc1cc(N2CCN(C)CC2)ccc1Nc1ncc(Cl)c(Oc2cccc(NC(=O)CCN3CCN(CCOc4no[n+]([O-])c4S(=O)(=O)c4ccccc4)CC3)c2)n1 | 6.58
3. COc1cc(N2CCN(C)CC2)ccc1Nc1ncc(Cl)c(Oc2cccc(NC(=O)CCN3CCN(CCO)CC3)c2)n1 | 5.23

As a next step, examine the molecule that follows.
Request: Form: Entry = `CCOC(=O)N1CCN(CCC(=O)Nc2cccc(Oc3nc(Nc4ccc(N5CCN(C)CC5)cc4OC)ncc3Cl)c2)CC1` | System = Epidermal growth factor receptor (Homo sapiens, UniProt P00533, L858R) | pIC50 = ____
Result: 5.62
